Kindly supply the reported MPTP Swelling Rate Increase/GSAO* Mean values for the records listed here.
# targetEntity: MPTP (Rattus norvegicus, UniProt Q09073); further: test concentration or dose not given here
# Construct: Mitochondria were isolated from the livers of ˜250 g male Wistar rats; from tissue; host or cells: rat liver mitochondria (male Wistar rats)
# Sequence (Q09073 2-298 limits assumed): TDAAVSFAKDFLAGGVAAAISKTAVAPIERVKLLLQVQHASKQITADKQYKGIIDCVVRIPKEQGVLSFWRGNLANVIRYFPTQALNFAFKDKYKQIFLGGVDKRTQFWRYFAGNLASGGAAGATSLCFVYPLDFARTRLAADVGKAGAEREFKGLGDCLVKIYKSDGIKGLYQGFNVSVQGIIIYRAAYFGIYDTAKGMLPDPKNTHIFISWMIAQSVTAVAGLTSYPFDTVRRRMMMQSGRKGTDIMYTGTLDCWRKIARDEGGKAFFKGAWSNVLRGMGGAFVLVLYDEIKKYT
# Type: biochemical
Residues, ends and D or L forms follow the SMILES beside them. *: point of attachment. X2 = O=C(C*)Nc1ccc([As](O)O)cc1; X1 = O=C(C*)Nc1ccccc1[As](O)O
Give the value as a plain number.

Query string: Provide measured MPTP Swelling Rate Increase/GSAO* Mean value, entry: CC(C)C(N)C(=O)NC(C(=O)NC(CSCC(=O)Nc1ccccc1[As](O)O)C(=O)NCC(=O)O)C(C)O (stereo not shown) [Compound 23] (H-VTC(X1)G-OH; configuration not given here)
Result string: 5.4

Query string: Provide measured MPTP Swelling Rate Increase/GSAO* Mean value, entry: NC(CCC(=O)NC(CSCC(=O)Nc1ccccc1[As](O)O)C(=O)NCC(=O)O)C(=O)O (stereo not shown)
Result string: 16.3

Query string: Provide measured MPTP Swelling Rate Increase/GSAO* Mean value, entry: NCC(=O)NCC(=O)NC(CSCC(=O)Nc1ccc([As](O)O)cc1)C(=O)O (stereo not shown)
Result string: 2.2

Query string: Provide measured MPTP Swelling Rate Increase/GSAO* Mean value, entry: N=C(N)NCCC[C@H](N)C(=O)NCC(=O)N[C@@H](CC(=O)O)C(=O)N[C@@H](CSCC(=O)Nc1ccc([As](O)O)cc1)C(=O)O [Compound 6] (H-RGDC(X2)-OH)
Result string: 4.5

Query string: Provide measured MPTP Swelling Rate Increase/GSAO* Mean value, entry: O=C(O)Cn1nnnc1SCC(=O)Nc1ccc([As](O)O)cc1
Result string: 2.8

Query string: Provide measured MPTP Swelling Rate Increase/GSAO* Mean value, entry: O=C(O)CCC(NC(=O)NC(CSCC(=O)Nc1ccc([As](O)O)cc1)C(=O)O)C(=O)O (stereo not shown)
Result string: 2.4

Query string: Provide measured MPTP Swelling Rate Increase/GSAO* Mean value, entry: O=C(CS[C@@H]1O[C@H](CO)[C@@H](O)[C@H](O)[C@H]1O)Nc1ccc([As](O)O)cc1
Result string: 1.1

Query string: Provide measured MPTP Swelling Rate Increase/GSAO* Mean value, entry: CC(C)C(N)C(=O)NC(C(=O)NC(CSCC(=O)Nc1ccc([As](O)O)cc1)C(=O)NCC(=O)O)C(C)O (stereo not shown) [Compound 8] (H-VTC(X2)G-OH; configuration not given here)
Result string: 2.1

Query string: Provide measured MPTP Swelling Rate Increase/GSAO* Mean value, entry: N[C@@H](CCC(=O)N[C@@H](CSCC(=O)Nc1ccc([As]=O)cc1)C(=O)NCC(=O)O)C(=O)O (stereo partly shown)
Result string: 1

Query string: Provide measured MPTP Swelling Rate Increase/GSAO* Mean value, entry: O=C(O)CC(SCC(=O)Nc1ccc([As](O)O)cc1)C(=O)O (stereo not shown)
Result string: 1.6

Query string: Provide measured MPTP Swelling Rate Increase/GSAO* Mean value, entry: NCC(=O)NCC(=O)N[C@@H](CSCC(=O)Nc1ccccc1[As](O)O)C(=O)O
Result string: 6.9

Query string: Provide measured MPTP Swelling Rate Increase/GSAO* Mean value, entry: O=C(O)CCSCC(=O)Nc1ccc([As](O)O)cc1
Result string: 1.3

Query string: Provide measured MPTP Swelling Rate Increase/GSAO* Mean value, entry: O=C(CSCCCS(=O)(=O)O)Nc1ccc([As](O)O)cc1
Result string: 2.0
